molecular target: G12C KRAS (aa2-184) (Homo sapiens, UniProt P01116, G12C); assay: biochemical
Sequence (P01116 2-184 isoform P01116-2 G12C): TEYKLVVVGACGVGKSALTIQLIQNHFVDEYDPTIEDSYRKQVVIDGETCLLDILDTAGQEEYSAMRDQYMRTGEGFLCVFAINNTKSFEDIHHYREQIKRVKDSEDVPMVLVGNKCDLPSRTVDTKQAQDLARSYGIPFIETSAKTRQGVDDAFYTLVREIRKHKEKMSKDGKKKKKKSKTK
Counter-ions that a name gives are not always drawn.
PROPERTY NAME: Kd (nM)

>  <COMPOUND>
Oc1cc(-c2ncc3c(N4C[C@@H]5C[C@H](C4)[C@H](O)C5)nc(OC[C@@]45CCCN4C[C@H](F)C5)nc3c2F)c2ccccc2c1

>  <TARGET ENTITY>
G12C KRAS (aa2-184) (Homo sapiens, UniProt P01116, G12C)

>  <Kd, nM>
0.963

$$$$

I: C#Cc1cccc2cc(O)cc(-c3ncc4c(N5C[C@H]6CC[C@@H](C5)O6)nc(OC[C@@]56CCCN5C[C@H](F)C6)nc4c3F)c12
II: N#CC[C@@H]1CCCN(c2nc(OC[C@@]34CCCN3C[C@H](F)C4)nc3c(F)c(-c4cc(O)cc5ccc(F)c(F)c45)ncc23)C1
III: Oc1cc(-c2ncc3c(N4C[C@H]5CC[C@@H](C4)O5)nc(OC[C@@]45CCCN4C[C@H](F)C5)nc3c2F)c2c(F)c(F)ccc2c1 [Example 16, acetic acid salt]
Exercise: Number of compounds to sort: 3. Sort criterion: Kd, ascending. Please, when replying, give the labels in the order that was requested.
Solution: II, I, III
(II: 1.13 nM, I: 1.64 nM, III: 8.57 nM)

These measurements were taken from patent US20260327244A1.
